# credit: patent US6066628A

- System: S. aureus
- Experiment Notes: Disc diffusion sensitivity test
- Type: cell-based, Staphylococcus aureus
- Condition: S. aureus; disc ~50 μg MP
Where diameter (mm) of the inhibition zone equals or exceeds 20 mm, the correct label is condition met; where it does not, the label is condition not met.

Molecule	Class Name
C=Cc1c(C)c2cc3[nH]c(cc4nc(cc5nc(cc1[nH]2)C(C)=C5CCC(=O)[O-])C(CCC(=O)[O-])=C4C)c(C)c3C=C.[Co+2]	condition not met

Hello, I need to know if "C=CC1=C(C)c2cc3[n-]c(cc4nc(cc5[n-]c(cc1n2)c(C)c5C=C)C(C)=C4CCC(=O)O)c(CCC(=O)O)c3C.[Zn+2]" has measured diameter (mm) of the inhibition zone not below 20 mm. Thanks!
condition not met

Could you verify whether the entry "C=CC1=C(C)c2cc3[n-]c(cc4nc(cc5[n-]c(cc1n2)c(C)c5CCC(=O)O)C(CCC(=O)O)=C4C)c(C)c3C=C.[Cr+2]" shows diameter (mm) of the inhibition zone of no less than 20 mm?
condition not met

For this molecule, is measured diameter (mm) of the inhibition zone 20 mm or higher? "C=CC1=C(C)c2cc3[n-]c(cc4[n-]c(cc5nc(cc1n2)C(C)=C5C=C)c(C)c4CCC(=O)[O-])c(CCC(=O)[O-])c3C.[H+].[H+].[Mn+2]"
condition met

Check this molecule for diameter (mm) of the inhibition zone at or above 20 mm: "C=CC1=C(C)c2cc3[n-]c(cc4nc(cc5[n-]c(cc1n2)c(C)c5CCC(=O)O)C(CCC(=O)O)=C4C)c(C)c3C=C.[Ru+2]"
condition not met

Answer whether diameter (mm) of the inhibition zone of C=CC1=C(C)C2=Cc3c(C=C)c(C)c4[n]3[Ga][n]3c(c(C)c(CCC(=O)O)c3=CC3=NC(=C4)C(C)=C3CCC(=O)O)=CC1=N2 [Ga-PPIX, Gallium (III) protoporphyrin IX chloride] is greater than or equal to 20 mm.
condition met
